Entries and their measured IC50 follow.
system: HeLa; assay: Cytotoxicity against human HeLa cells by MTT assay; assay type: functional, cell-based

Known IC50 results, listed for orientation:
C/C=C(\C)C(=O)O[C@@H]1[C@@H]2OC[C@]3(C)[C@H](OC(C)=O)C[C@H](OC(C)=O)[C@@](C)([C@@H]23)[C@H]2CCO[C@H]3C[C@@H](C4=CCOC4=O)C(C)=C3[C@]12C : > 100 µM
C/C=C(\C)C(=O)O[C@@H]1[C@@H]2OC[C@]3(C)[C@H](OC(C)=O)C[C@H](O)[C@@](C)([C@@H]23)[C@H]2C[C@H](OCC)O[C@H]3C[C@@H](C4=CCOC4=O)C(C)=C3[C@]12C : > 100 µM

Attention now turns to another entry.
Data request, read-out IC50, for C/C=C(\C)C(=O)O[C@@H]1[C@@H]2OC[C@]3(C)[C@H](OC(C)=O)C[C@H](O)[C@@](C)([C@@H]23)[C@H]2C[C@H](OC)O[C@H]3C[C@@H](C4=CCOC4=O)C(C)=C3[C@]12C
> 100 µM

// data source = ChEMBL document CHEMBL1154803
